- System: Rattus norvegicus
- Test: Anticonvulsant activity in Sprague-Dawley albino rat assessed as protection against maximal electroshock at 30 mg/kg, po after 2 hrs
- Assay type: functional
Outcome measure: Activity (%)

INSERT INTO assay_data (molecule, value) VALUES
  ('O=C(CN1C(=O)C2CCCCC2C1=O)N1CCN(c2ccc(F)cc2)CC1 (centres undefined)', 0),
  ('O=C(CN1C(=O)c2ccccc2C1=O)N1CCN(c2ccc(F)cc2)CC1', 100),
  ('O=C1NC(=O)C(c2ccccc2)(c2ccccc2)N1', 75),
  ('O=C(CN1C(=O)c2ccccc2C1=O)N1CCN(c2ccc(Cl)cc2)CC1', 0);
